I'd appreciate it if you could supply IC50 values for the items below.
Tested system: Delta-type opioid receptor (Mus musculus, UniProt P32300)
Sequence (P32300 whole entry): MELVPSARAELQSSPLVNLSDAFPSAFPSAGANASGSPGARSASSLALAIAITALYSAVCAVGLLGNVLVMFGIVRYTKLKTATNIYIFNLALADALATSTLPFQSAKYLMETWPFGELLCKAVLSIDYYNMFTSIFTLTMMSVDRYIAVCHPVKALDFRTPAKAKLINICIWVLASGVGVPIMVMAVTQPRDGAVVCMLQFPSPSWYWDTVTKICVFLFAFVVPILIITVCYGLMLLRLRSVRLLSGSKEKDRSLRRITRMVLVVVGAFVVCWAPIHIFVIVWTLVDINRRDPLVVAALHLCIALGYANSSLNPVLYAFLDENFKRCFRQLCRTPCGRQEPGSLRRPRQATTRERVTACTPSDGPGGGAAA
Assay: Agonist activity using electrically induced smooth muscle contraction of mouse vas deferens.
Give bare numbers, in nM.

Compound	IC50 [nM]
CCN(CC)C(=O)c1ccc(C(c2ccccc2)N2CCN(Cc3ccccc3)CC2)cc1 (stereo not drawn)	25.7
C=CCN1CCN(C(c2ccc(C(=O)N(CC)CC)cc2)c2cccc(OC)c2)CC1 (stereo not drawn)	33.1

Please give measured IC50 of the following entry: CCN(CC)C(=O)c1ccc(C(=C2CCNCC2)c2cccc(OC)c2)cc1
125

----------
Assay: Ki ratio of mu to delta receptor
Measured property: Ki ratio

Recorded Ki ratio, per entry:
Molecule	Measured property	Result
C=CCN1CCN(C(c2ccc(C(=O)N(CC)CC)cc2)c2cccc(OC)c2)CC1 (configuration not stated)	Ki ratio	> 230
C=CCN1C[C@H](C)N([C@@H](c2ccccc2)c2ccc(C(=O)N(CC)CC)cc2)C[C@H]1C	Ki ratio	> 3600
CCN(CC)C(=O)c1ccc(C(=C2CCNCC2)c2cccc(OC)c2)cc1	Ki ratio	> 1200

Value sought for every listed molecule: Ki ratio.
1. CCN(CC)C(=O)c1ccc(C(c2ccccc2)N2CCN(Cc3ccccc3)CC2)cc1 (configuration not stated)
2. CCN(CC)C(=O)c1ccc(C(c2cccc(OC)c2)N(C)CCN(C)C)cc1 (configuration not stated)

["> 4500", "> 20"]

Value sought for every listed molecule: Ki ratio.
1. CCN(CC)C(=O)c1ccc(C(c2ccccc2)N2CCCCC2)cc1 (configuration not stated)
2. CCN(CC)C(=O)c1ccc(C(c2ccccc2)N2CCNCC2)cc1 (configuration not stated)
3. CCN(CC)C(=O)c1ccc(C(c2ccccc2)N2CCN(C)CC2)cc1 (configuration not stated)
4. CCN(CC)C(=O)c1ccc(C(c2cccc(OC)c2)C2CCN(C)CC2)cc1 (configuration not stated)
5. CCN(CC)C(=O)c1ccc(C(c2ccccc2)N2CCOCC2)cc1 (configuration not stated)
6. C=CCN1CCN(C(c2ccccc2)c2ccc(C(=O)N(CC)CC)cc2)CC1 (configuration not stated)

1: > 4; 2: > 1400; 3: > 130; 4: > 15; 5: > 4; 6: > 600

----------
I'd appreciate it if you could supply Ratio values for the items below.
Assay: IC50 ratio of mu to delta receptor
Answers are plain numbers.

Recorded Ratio, per entry:
Compound	Measured number
C=CCN1CCN(C(c2ccc(C(=O)N(CC)CC)cc2)c2cccc(OC)c2)CC1 (centres undefined)	610
CCN(CC)C(=O)c1ccc(C(=C2CCNCC2)c2cccc(OC)c2)cc1	220
CCN(CC)C(=O)c1ccc(C(c2ccccc2)N2CCN(Cc3ccccc3)CC2)cc1 (centres undefined)	382

Now look at this entry.
Please give measured Ratio of the following entry: C=CCN1C[C@H](C)N([C@@H](c2ccccc2)c2ccc(C(=O)N(CC)CC)cc2)C[C@H]1C
813

----------
Tested system: Kappa-type opioid receptor (Cavia porcellus)
Sequence (P41144 whole entry): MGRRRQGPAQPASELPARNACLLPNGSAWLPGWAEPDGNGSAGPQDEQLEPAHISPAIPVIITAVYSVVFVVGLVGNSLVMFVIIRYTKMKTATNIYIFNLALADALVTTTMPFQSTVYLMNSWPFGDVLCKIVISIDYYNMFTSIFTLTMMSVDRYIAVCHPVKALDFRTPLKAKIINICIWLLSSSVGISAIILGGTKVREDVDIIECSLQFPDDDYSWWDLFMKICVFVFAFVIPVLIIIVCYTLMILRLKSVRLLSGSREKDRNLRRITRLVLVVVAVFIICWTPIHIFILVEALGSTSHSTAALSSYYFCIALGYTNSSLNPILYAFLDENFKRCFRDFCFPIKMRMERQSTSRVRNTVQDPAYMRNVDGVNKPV
Assay: In vitro radioligand binding assay, for inhibition of [3H]U-69593 binding to Opioid receptor kappa 1, in guinea pig brain membranes.
Assay type: cell membranes
Measured property: pKi
Numbers only, as −log10 of the molar value.

Recorded pKi, per entry:
Compound	Measured property	Measured number
C=CCN1C[C@H](C)N([C@@H](c2ccccc2)c2ccc(C(=O)N(CC)CC)cc2)C[C@H]1C	pKi	5.52
C=CCN1C[C@H](C)N([C@H](c2ccc(C(=O)N(CC)CC)cc2)c2cccc(OC)c2)C[C@H]1C	pKi	4.93
C=CCN1CCN(C(c2ccc(C(=O)N(CC)CC)cc2)c2cccc(OC)c2)CC1 (centres undefined)	pKi	5.00

Please give measured pKi of the following entry: CCN(CC)C(=O)c1ccc(C(=C2CCN(Cc3ccccc3)CC2)c2cccc(OC)c2)cc1
5.12

----------
Tested system: Delta-type opioid receptor (Rattus norvegicus)
Sequence (P33533 whole entry): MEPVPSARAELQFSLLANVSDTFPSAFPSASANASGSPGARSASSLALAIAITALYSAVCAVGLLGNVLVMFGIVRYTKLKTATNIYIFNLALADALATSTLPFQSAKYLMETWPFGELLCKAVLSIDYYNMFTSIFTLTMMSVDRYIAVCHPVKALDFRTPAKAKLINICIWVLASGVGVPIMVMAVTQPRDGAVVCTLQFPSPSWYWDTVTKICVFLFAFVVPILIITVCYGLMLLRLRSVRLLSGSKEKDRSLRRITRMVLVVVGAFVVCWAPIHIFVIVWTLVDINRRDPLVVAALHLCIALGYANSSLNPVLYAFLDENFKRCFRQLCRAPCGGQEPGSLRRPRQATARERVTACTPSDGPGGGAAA
Assay: In vitro radioligand binding assay, for inhibition of [3H]DADLE (Tyr-D-Ala-Gly-Phe-D-Leu) binding to Opioid receptor delta 1, in rat brain membranes at highest concentration of 1700 nM tested
Type: cell membranes
I'd appreciate it if you could supply pKi values for the items below.
Give bare numbers, as −log10 of the molar value.

Value sought for every listed compound: pKi.
1. CCN(CC)C(=O)c1ccc(C(c2ccccc2)N2CCOCC2)cc1 (configuration not stated)
2. CCN(CC)C(=O)c1ccc(C(c2ccccc2)N2CCCCC2)cc1 (configuration not stated)

1: 5.52; 2: 5.52

----------
Tested system: Delta-type opioid receptor (Rattus norvegicus)
Assay: In vitro binding affinity to Opioid receptor delta 1 in rat brain membranes by [3H]DADLE (Tyr-D-Ala-Gly-Phe-D-Leu) displacement.
Assay type: cell membranes
Measured property: pKi
Numbers only, as −log10 of the molar value.

Molecule	pKi
CCN(CC)C(=O)c1ccc(C(c2cccc(OC)c2)C2CCNCC2)cc1 (stereo not given)	7.70
CCN(CC)C(=O)c1ccc(C(c2cccc(OC)c2)N(C)CCN(C)C)cc1 (stereo not given)	6.61
CCCN1CCN(C(c2ccccc2)c2ccc(C(=O)N(CC)CC)cc2)CC1 (stereo not given)	7.35
C=CCN1CCN(C(c2ccc(C(=O)N(CC)CC)cc2)c2cccc(OC)c2)CC1 (stereo not given)	7.57

Now look at this entry.
GET pKi where system = Delta-type opioid receptor (Rattus norvegicus) and item = C=CCN1C[C@H](C)N([C@@H](c2ccccc2)c2ccc(C(=O)N(CC)CC)cc2)C[C@H]1C
9.30

----------
Assay: Ki ratio of mu to delta receptor
I'd appreciate it if you could supply Ki ratio values for the items below.

Value sought for every listed molecule: Ki ratio.
1. CCN(CC)C(=O)c1ccc(C(=C2CCN(Cc3ccccc3)CC2)c2cccc(OC)c2)cc1
2. CCN(CC)C(=O)c1ccc(C(c2cccc(OC)c2)C2CCNCC2)cc1 (stereo unspecified)
3. CCN(CC)C(=O)c1ccc(C(OCCN(C)C)c2cccc(OC)c2)cc1 (stereo unspecified)
4. CCN(CC)C(=O)c1ccc(C(NCCN(C)C)c2cccc(OC)c2)cc1 (stereo unspecified)
5. CCCN1CCN(C(c2ccccc2)c2ccc(C(=O)N(CC)CC)cc2)CC1 (stereo unspecified)

["> 500", "> 300", "> 20", "> 10", "> 150"]

Please give measured Ki ratio of the following entry: C=CCN1CCC(C(c2ccc(C(=O)N(CC)CC)cc2)c2cccc(OC)c2)CC1 (stereo unspecified)
> 200
